Reported EC50 by item:
system: HMPV clinical isolate TN/1501/A1; test: HMPV antiviral assay Method-B (clinical isolate TN/1501/A1 in LLC-MK2 cells, ATP-Lite readout); type: cell-based, Human metapneumovirus (HMPV); conditions: human metapneumovirus, LLC-MK2, 144 h, hMPV WT1501 (clinical isolate TN/1501/A1), 6 days

Sample records with EC50:
COc1ccc(C(=O)NC[C@](O)(c2cc3c(c(-c4ccc(F)c(Cl)c4)n2)OC[C@]3(C)C(N)=O)C(F)(F)F)cc1NC(=O)NC1CC1 [Example 627] : > 500 nM
COc1cc(C(=O)NC[C@](O)(c2cc3c(c(-c4ccc5c(c4)OC(F)(F)O5)n2)OC[C@]3(C)C(N)=O)C(F)(F)F)cc2cn(C3(F)CC3)nc12 [Example 837] : < 500 nM
Cc1cnc2c(OC(F)F)cc(C(=O)NC[C@](O)(c3cc4c(c(-c5ccc(F)cc5)n3)OC[C@@]4(C(N)=O)C(F)F)C3CC3)cc2c1 [Example 1027] : < 500 nM
COc1cc(C(=O)NC[C@](O)(c2cc3c(c(-c4ccc(F)c(Cl)c4)n2)OC[C@]3(C)C(N)=O)C2CC2)cc2cn(C3(Cl)CC3)nc12 [Example 841] : < 500 nM
COc1cc(C(=O)NC[C@](O)(c2cc3c(c(-c4ccc(F)c(Cl)c4)n2)OC[C@]3(C(N)=O)C(F)F)C(F)(F)F)cc2sc(C3CC3)nc12 [Example 1016] : > 500 nM

Please state recorded EC50 (tested on HMPV clinical isolate TN/1501/A1) of C[C@]1(C(N)=O)COc2c1cc([C@@](O)(CNC(=O)c1cc(Cl)c3nn(C4CC4)cc3c1)C1(F)CC1)nc2-c1cc(Cl)c(F)cc1F [Example 759]
< 500 nM

meta.source: patent US12612412B2
